Attribution: paper PMC7931078

For each entry below, report its IC50 value.
System: 3D7 strain of Plasmodium falciparum
Assay: In vitro antiplasmodial assay (pLDH)
Format: cell-based
Settings: Plasmodium falciparum, 3D7, 48 h, read-out: IC50 Pf 3D7, chloroquine sensitive strain 3D7, 48 h, pLDH

Memo: CCn1cc(C(=O)NCCOCCO)c(=O)c2cc(OCc3ccc(C(F)(F)F)cc3)ccc21 [Compound 8a] , reported IC50: < 10 µM

Memo: COCCNC(=O)c1cn(Cc2ccccc2)c2ccc(Cn3cnc4c3c(=O)n(C)c(=O)n4C)cc2c1=O [Compound 4f] , reported IC50: > 20 µM

Memo: CCn1cc(C(=O)OC)c(=O)c2cc(C(=O)/C=C/c3c(Cl)cccc3Cl)ccc21 [Compound 16] , reported IC50: 11.7 µM

Memo: CCn1cc(C(=O)NCCOCCO)c(=O)c2cc(OCc3ccc(C(F)(F)F)cc3)c(Cl)cc21 [Compound 8d] , reported IC50: > 20 µM

Memo: O=C(NCCOCCO)c1cn(Cc2ccccc2)c2cc(Cl)c(OCc3ccc(C(F)(F)F)cc3)cc2c1=O [Compound 8h] , reported IC50: > 20 µM

Memo: CCOC(=O)c1cn(Cc2ccccc2)c2ccc(Cn3cnc4c3c(=O)n(C)c(=O)n4C)cc2c1=O [Compound 3c] , reported IC50: > 20 µM

Memo: CCn1cc(C(=O)NCCNCCO)c(=O)c2cc(Cn3cnc4c3c(=O)n(C)c(=O)n4C)ccc21 [Compound 4a] , reported IC50: > 20 µM

Memo: CCOC(=O)c1cn(CC)c2ccc([N+](=O)[O-])cc2c1=O [Compound 11] , reported IC50: > 20 µM

Memo: Cn1c(=O)c2c(ncn2Cc2ccc3c(c2)c(=O)c(C(=O)NCCOCCO)cn3Cc2ccccc2)n(C)c1=O [Compound 4e] , reported IC50: ≥ 25 µM

Memo: CCOC(=O)c1cn(CC)c2ccc(Cn3cnc4c3c(=O)n(C)c(=O)n4C)cc2c1=O [Compound 3a] , reported IC50: > 20 µM

Memo: CCOC(=O)c1cn(Cc2ccccc2)c2ccc(/N=C/c3ccc([N+](=O)[O-])o3)cc2c1=O [Compound 13] , reported IC50: < 10 µM

Memo: CCOC(=O)c1cn(Cc2ccc(Br)cc2)c2ccc(Cn3cnc4c3c(=O)n(C)c(=O)n4C)cc2c1=O [Compound 3d] , reported IC50: 13.6 µM

Memo: CCn1cc(C(=O)NCCOCCO)c(=O)c2cc(Cn3cnc4c3c(=O)n(C)c(=O)n4C)ccc21 [Compound 4b] , reported IC50: > 20 µM

Memo: Cn1c(=O)c2c(ncn2Cc2ccc3c(c2)c(=O)c(C(=O)NCCNCCO)cn3Cc2ccccc2)n(C)c1=O [Compound 4d] , reported IC50: ≥ 25 µM

Memo: Cn1c(=O)c2c(ncn2Cc2ccc3c(c2)c(=O)c(C(=O)NCCOCCO)cn3Cc2ccc(Br)cc2)n(C)c1=O [Compound 4h] , reported IC50: 0.68 µM

Memo: O=C(NCCNCCO)c1cn(Cc2ccccc2)c2cc(Cl)c(OCc3ccc(C(F)(F)F)cc3)cc2c1=O [Compound 8g] , reported IC50: 0.4 µM

Memo: Nc1ccc2c(c1)c(=O)c(C(=O)NCCOCCO)cn2Cc1ccccc1 [Compound 14] , reported IC50: > 20 µM

Memo: CCOC(=O)c1cn(Cc2ccccc2)c2ccc(N)cc2c1=O [Compound 12] , reported IC50: 10 µM
